meta.source: PubChem BioAssay (NCI)

System: U251 CNS
experiment: NCI-60 one-dose screen, 48 h (100 = growth as untreated, 0 = no growth, -100 = all killed)
test_settings: 10 µM unless noted
This is part of a sample that, as a whole, favours compounds with a hit. Of some 83,000 tested, about 20% had one in any assay.
Attribute: growth
API: value field is a number in %; no unit string.

Reference set (3 entries):
C#CC[C@@H]1C[C@]2(C)[C@H]3CC[C@@H]4[C@H]5C(C(=C)C)CC[C@]5(C(=O)NCCN(CCN)CCN)CC[C@@]4(C)[C@]3(C)CC[C@H]2C(C)(C)[C@H]1OC(C)=O (stereo not given in full)	-28.4
CCCc1n(Cc2ccc3ccccc3c2)c2ccccc2[n+]1Cc1ccc2ccccc2c1	-92.6
CCCCCCCCCC1=NC(C)(C)CN1C(C)(C)CO	82.6

Problem: For the molecule shown here, O=C(NO)c1ccc(NCc2csc3ccccc23)cc1 , give the reported growth.
Solution: 57.4

Problem: Which growth value belongs to CCCCn1cnc(-c2cc(-c3ccccc3)cc(C(F)(F)F)c2)n1 ?
Solution: 97.7

* * *

System: LOX IMVI melanoma
experiment: NCI-60 one-dose screen, 48 h (100 = growth as untreated, 0 = no growth, -100 = all killed)
test_settings: 10 µM unless noted
This is part of a sample that, as a whole, favours compounds with a hit. Of some 83,000 tested, about 20% had one in any assay.
Below is a list of entries, each paired with its recorded growth value.
The response must be a number in % with no trailing unit.

Some compounds with recorded growth:
C/C=C(\C)C(C(=O)NC1CCCCC1)N(C(=O)C1CCc2cc(F)ccc2O1)c1ccc([N+](=O)[O-])cc1 (centres undefined)	87.7
Cc1nn(-c2ccc(Cl)cc2)c(=O)n1CCN1CCOCC1	81.6
COc1ccc2[nH]cc(/C=C3\C(=O)Nc4ccccc43)c2c1	21.1
Nc1nc(N)c2cc(CNc3ccc(Cl)c(Cl)c3)ccc2n1	-54.8
COc1ccc(/C=C/C(=O)c2ccc(NC(=O)CSc3nnc(-c4ccc(OC)cc4)n3-c3ccccc3)cc2)cc1	102
CCCCCCCCCCCCCCCc1cc(O)ccc1[N+](=O)[O-]	98

Problem: What growth value was documented for this compound, O=c1cc(N2CCOCC2)oc2c(-c3ccc4c(c3)OCCO4)csc12 ?
Solution: 10.3

Problem: Please look up its growth: COc1ccc(-c2nc3ccc(Cc4ccc5nc(-c6ccc(OC)cc6)[nH]c5c4)cc3[nH]2)cc1
Solution: 15.7

Problem: I am curious: what growth value has been reported for Oc1[nH]c2ccccc2c1/C=c1/ccc2c(c1)N=C(c1ccc(C(F)(F)F)cc1)N=2 ?
Solution: 43.4

Problem: What measured growth goes with CC1=C(C(=O)Nc2ccc(F)cc2)C(c2ccc(Cl)cc2)C2=C(CC(C)(C)CC2=O)N1 (centres undefined) ?
Solution: 87.8

Problem: # get_value(readout='growth', item= COc1c(C(=O)/C=C/c2ccc(C)o2)c(O)cc2occc12 )
Solution: 71.2

* * *

Test system: U251 CNS
experiment: NCI-60 one-dose screen, 48 h
test_settings: 10 µM unless noted
Compounds without any hit were thinned out: in the full panel of roughly 83,000, 20% have a hit. Active and inactive are the calls of the source. The calls were made as follows: active = growth percent below 10; inactive = the rest.
Please answer using one outcome listed in active, inactive

Some entries whose results are on file:
COc1ccc(C2C3=C(COC3=O)N(CCO)c3cc(OC)c(OC)cc32)cc1 (stereo unspecified)	inactive
ClCc1cccc(CSc2ncnc3c2ncn3Cc2cccc(CCl)c2)c1	active
Cc1cccc(C(=O)O)n1	inactive
COc1ccc2[nH]c(O)c(/C=c3/ccc4c(c3)N=C(c3ccc(C(F)(F)F)cc3)N=4)c2c1	inactive
COc1ccc(-n2nc(C(=O)NCC(=O)Nc3nc4cc(OC)ccc4s3)c3ccccc3c2=O)cc1	active

Problem: Please indicate how the test categorized CCNC(=S)N(Cc1ccccc1)Cc1ccccc1 .
Solution: inactive

Problem: Which outcome did this test record for the compound CCCCCCCCCCCCCC(=S)NCCCC[C@H](NC(=O)OCc1ccccc1)C(=O)Nc1ccccc1 ?
Solution: inactive

Problem: Test call, this compound: C/C(CC(=O)NNc1ccc([N+](=O)[O-])cc1)=N\Nc1ccc([N+](=O)[O-])cc1
Solution: inactive

Problem: Hi, sorry to bother you, what did the test record for COc1cccc(OCC(O)CN2CCN(c3ccccc3)CC2)c1 (stereo unspecified) ?
Solution: inactive

Problem: # fetch the recorded call for N=C(N)c1ccc(-c2ccc(-c3cc(Cl)cc(Cl)c3)o2)nc1 here
Solution: active

Problem: Answer briefly: the call reported for Clc1ccc(Nc2ncnc3c2sc2ncccc23)c(Cl)c1 in this assay.
Solution: inactive

* * *

// growth lookup, one value per entry
Tested on: DU-145 prostate
experiment: NCI-60 one-dose screen, 48 h (100 = growth as untreated, 0 = no growth, -100 = all killed)
test_settings: 10 µM unless noted
About 83,000 compounds went through this panel and 20% of them were active in at least one assay; those are over-represented in the sample as a whole.
Numbers only here, please. The scale is %.

Problem: Which growth reading was recorded for the compound COS(=O)(=O)CCN(CCOS(C)(=O)=O)S(C)(=O)=O ?
Solution: 105

Problem: I'd like to know its growth. The compound in question is COc1cccc(Cn2c(-c3nonc3NC(C)=O)nc3ccccc32)c1
Solution: 13.8

Problem: growth lookup needed for COc1cc2nccc(Oc3ccc(NC(=O)C4(C(=O)Nc5c(F)cc(F)cc5F)CC4)cc3)c2cc1Oc1ccc(N)cn1 , thanks.
Solution: 80.7

Problem: # lookup: growth of COc1cc2c(cc1OC)C(=O)OC2
Solution: 109

Problem: Requested field: growth. Item: CC(=O)Nc1ccc(Cl)cc1Cl
Solution: 111

* * *

Tested on: RXF 393 renal
experiment: NCI-60 one-dose screen, 48 h
test_settings: 10 µM unless noted
About 83,000 compounds went through this panel and 20% of them were active in at least one assay; those are over-represented in the sample as a whole. Activity calls are given as the source filed them. Rule for the calls: active = growth percent below 10; inactive = the rest.
Returns: one label drawn from y = active, n = inactive

Known results for compounds:
COc1ccc(Br)c2ccccc12	n
OC(c1cc2c(Cl)cc(Cl)cc2c2cc(C(F)(F)F)ccc12)C1CCCCN1 (stereo not drawn)	y
O=C1OCC2=C1C(c1ccc(Cl)c(Cl)c1)c1cc3c(cc1N2CCO)CCC3 (stereo not drawn)	n
Nc1ncnc2c1N=C(c1ccc(F)cc1)CC(c1sc(Cl)nc1Cl)N2 (stereo not drawn)	n
O=C(O)Cn1ccc2ccccc21	n

Problem: Answer briefly: the call reported for COc1ccc(C(=O)C(C#N)c2cc(OC)c(OC)c(OC)c2)cc1 (stereo not drawn) in this assay.
Solution: n

Problem: Returns: the outcome recorded for N#CC1=C(N)Oc2nc[nH]c(=O)c2C1c1cccs1 (stereo not drawn) in this assay.
Solution: n

Problem: For this compound, state the assay outcome: COc1ccc(/C=C(/C(=O)N2CCN(c3ccccc3)CC2)c2cc(OC)c(OC)c(OC)c2)cc1N
Solution: y

Problem: Please let me know the test result on file for CCOc1cccc(/C=N/NC(=O)Cc2ccc(Nc3ccnc(C(F)(F)F)c3)cc2)c1O .
Solution: n

Problem: Please let me know the test result on file for CCCc1n(Cc2ccc3ccccc3c2)c2ccccc2[n+]1Cc1ccc2ccccc2c1 .
Solution: y

Problem: Can you look up the reported call for CCN(CC)c1ccc2nc3c4ccccc4c(=O)cc-3n(-c3ccccc3)c2c1 for me?
Solution: y

Problem: Entry CC(=O)c1ccc(-n2c(-c3cc(-c4ccsc4)n[nH]3)n[nH]c2=S)cc1 : call = ?
Solution: n

Problem: Record request — test call for C[C@@H]1C[C@H](N)C[C@H](c2ccncc2NC(=O)c2ccc(F)c(-c3c(F)cccc3F)n2)C1
Solution: n

Problem: Hi, sorry to bother you, what did the test record for COc1ccc(NC(=O)/C=C/c2ccc(Cl)c(Cl)c2)cn1 ?
Solution: n

Problem: Recorded test outcome, item CC(COC(=O)c1ccccc1)N1CC2CCC(C1)O2 (stereo not drawn)
Solution: n

Problem: What did this assay record as the result for CCOC(=O)c1ccc(NCCC(=O)O)cc1 ?
Solution: n

Problem: Just curious, what result did COc1ccc(NC(=O)/C=C/c2ccc(NC(=O)N3CCCC3)cc2)cn1 get here?
Solution: n

Problem: Would you mind telling me which call this test gave NC(=S)N/N=C(/c1cccs1)C1CC1 ?
Solution: n

Problem: # outcome recorded in this test, key = CN=C1C=C/C(=N/N=c2/ccn(O)cc2C)C=C1C
Solution: n

Problem: Which outcome did this test record for the compound Cn1c(=O)c2c3c(oc2c2ccccc21)C(=O)c1ccccc1C3=O ?
Solution: n

Problem: What is the recorded call for this compound in the test? c1ccc(-c2[nH]c3ccccc3c2-c2ccccc2)cc1
Solution: n

Problem: Look up the recorded call for O=C(Cn1nncc1CN1C(=O)CSC1=O)Nc1ccc(F)cc1 in this test.
Solution: n

Problem: // param item: COCCOCCOCc1n(Cc2ccc3ccccc3n2)c2ccccc2[n+]1Cc1ccc2ccccc2c1 ; yields the recorded call
Solution: y
